Test system: Isogenic HCT-116 colon cancer cell lines;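 further: cells grown in 96-well plates in McCoy's 5A medium with 10% FBS, exposed to compound for 4 days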
Measurement description: cells
Assay type: cell-based
Settings: Homo sapiens, HCT-116, read-out: Cell growth inhibition using WST assay, HCT116 p53KO IC50, Table 19C; HCT116 p53KO
pIC50: −log10 of the molar value.
Entries and their measured pIC50 follow.

Query: Let me know recorded pIC50 for CNC[C@@H](O)CCNC(=O)[C@@H]1N[C@H](CC(C)(C)C)[C@]2(C(=O)Nc3cc(Cl)c(F)cc32)[C@H]1c1ccc(F)c(Cl)c1 [MI-319-30] , thanks.
Result: < 5.00

Query: Let me know recorded pIC50 for CC[C@H]1N[C@@H](C(=O)NCCN2CCOCC2)[C@H](c2cccc(Cl)c2)[C@@]12C(=O)Nc1cc(Cl)c(F)cc12 [MI-319-39] , thanks.
Result: < 5.00

Query: Let me know recorded pIC50 for O=C(NCC[C@H](O)CO)[C@H]1[C@H](c2cccc(Cl)c2)[C@@]2(C(=O)Nc3cc(Cl)c(F)cc32)[C@H]2CC3(CCCC3)CCN12 [MI-319-38] , thanks.
Result: < 5.00

Query: Let me know recorded pIC50 for CCOP(=O)(OCC)OC[C@@H](O)CCNC(=O)[C@@H]1N[C@H](CC(C)(C)C)[C@]2(C(=O)Nc3cc(Cl)c(F)cc32)[C@H]1c1ccc(F)c(Cl)c1 [MI-319-27] , thanks.
Result: < 5.00

Query: Let me know recorded pIC50 for CC(C)(C)C[C@H]1N[C@@H](C(=O)NCC[C@H](O)CO)[C@H](c2cc(Cl)ccn2)[C@@]12C(=O)Nc1cc(Cl)c(F)cc12 [MI-319-35] , thanks.
Result: < 5.00

Query: Let me know recorded pIC50 for CC(C)(C)C[C@H]1N[C@@H](C(=O)NCC[C@H](O)CO)[C@H](c2cncc(Cl)c2)[C@@]12C(=O)Nc1cc(Cl)c(F)cc12 [MI-319-34] , thanks.
Result: < 4.52

Query: Let me know recorded pIC50 for CC(C)(C)C[C@H]1N[C@@H](C(=O)NCC[C@H](O)COC(=O)CC(=O)O)[C@H](c2ccc(F)c(Cl)c2)[C@@]12C(=O)Nc1cc(Cl)c(F)cc12 [MI-319-26] , thanks.
Result: < 5.00

Query: Let me know recorded pIC50 for CC(C)(C)C[C@H]1N[C@@H](C(=O)NC[C@H](O)[C@H](O)CO)[C@H](Cc2cccc(Cl)c2)[C@@]12C(=O)Nc1cc(Cl)c(F)cc12 [MI-319-24] , thanks.
Result: < 5.00

Query: Let me know recorded pIC50 for CN(C)C[C@@H](O)CCNC(=O)[C@@H]1N[C@H](CC(C)(C)C)[C@]2(C(=O)Nc3cc(Cl)c(F)cc32)[C@H]1c1ccc(F)c(Cl)c1 [MI-319-28] , thanks.
Result: < 5.30

Query: Let me know recorded pIC50 for CC(C)(C)C[C@H]1N[C@@H](C(=O)NCC[C@H](O)CN)[C@H](c2cccc(Cl)c2)[C@@]12C(=O)Nc1cc(Cl)c(F)cc12 [MI-319-25] , thanks.
Result: < 5.00

Query: Let me know recorded pIC50 for O=C(NCC[C@H](O)CO)[C@@H]1N[C@H](CC2(CCO)CCCC2)[C@]2(C(=O)Nc3cc(Cl)c(F)cc32)[C@H]1c1cccc(Cl)c1 [MI-319-37] , thanks.
Result: < 4.52

Query: Let me know recorded pIC50 for CC(C)(CCO)C[C@H]1N[C@@H](C(=O)NCC[C@H](O)CO)[C@H](c2cccc(Cl)c2)[C@@]12C(=O)Nc1cc(Cl)c(F)cc12 [MI-319-36] , thanks.
Result: < 4.52
